Target: rat NaP2b (SLC34A2) (Rattus norvegicus)
Construct: host or cells: HEK293
Sequence (Q9JJ09 whole entry): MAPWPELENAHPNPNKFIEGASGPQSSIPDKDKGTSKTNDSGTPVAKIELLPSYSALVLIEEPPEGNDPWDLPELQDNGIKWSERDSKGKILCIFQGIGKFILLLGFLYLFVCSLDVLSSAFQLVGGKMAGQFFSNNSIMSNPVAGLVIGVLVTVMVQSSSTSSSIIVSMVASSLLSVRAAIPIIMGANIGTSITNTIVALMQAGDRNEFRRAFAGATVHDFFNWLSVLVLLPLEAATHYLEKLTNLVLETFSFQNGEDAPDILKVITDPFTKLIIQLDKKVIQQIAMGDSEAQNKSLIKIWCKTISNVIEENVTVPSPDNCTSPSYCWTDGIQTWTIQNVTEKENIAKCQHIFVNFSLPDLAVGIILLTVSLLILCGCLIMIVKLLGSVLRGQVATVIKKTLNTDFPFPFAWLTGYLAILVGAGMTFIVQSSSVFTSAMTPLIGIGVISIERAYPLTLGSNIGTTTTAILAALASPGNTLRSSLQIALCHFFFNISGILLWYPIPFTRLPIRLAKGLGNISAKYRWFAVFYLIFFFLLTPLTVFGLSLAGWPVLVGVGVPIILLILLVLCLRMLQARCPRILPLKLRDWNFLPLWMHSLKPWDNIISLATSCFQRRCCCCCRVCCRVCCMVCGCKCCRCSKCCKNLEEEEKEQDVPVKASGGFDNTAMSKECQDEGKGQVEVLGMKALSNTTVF
Assay: Inhibition of NaP2b-mediated Pi (33P) uptake in transfected HEK293 cells, rat NaP2b
Assay type: cell-based
Details: 33P Pi uptake, 0.1 mM phosphate, value given as pIC50 range
Reported IC50 is given for each of the following molecules.

// below: answered molecules
# molecule, target, measured metric, experimental result
rows = [
    ("CCN(CC)c1ccc(NC(=O)c2cccc(CCCOCCOCCOCCOCCC(=O)N3CCN(S(=O)(=O)c4ccc(C(=O)O)cc4)CC3)c2)c(-c2cc(C(=O)NCc3cccc(C(F)(F)F)c3)ccn2)c1", "rat NaP2b (SLC34A2) (Rattus norvegicus)", "IC50", "10 to 31.6 µM"),
    ("COCCNC(=O)C1CCCN(Cc2cccc(C(=O)Nc3ccc(N4CCCCC4)cc3-c3cc(C(=O)NCc4cccc(C(F)(F)F)c4)ccn3)c2)C1 (stereo in doubt) [Example 12.1]", "rat NaP2b (SLC34A2) (Rattus norvegicus)", "IC50", "1 to 7.94 µM"),
    ("COCCNC(=O)N1CCN(CCN(C)Cc2cccc(C(=O)Nc3ccc(N4CCCCC4)cc3-c3cc(C(=O)NCc4cccc(C(F)(F)F)c4)ccn3)c2)CC1", "rat NaP2b (SLC34A2) (Rattus norvegicus)", "IC50", "10 to 31.6 µM"),
    ("O=C(O)CCSCc1cccc(C(=O)Nc2ccc(N3CCCCC3)cc2-c2cc(C(=O)NCc3ccccc3C(F)(F)F)ccn2)c1", "rat NaP2b (SLC34A2) (Rattus norvegicus)", "IC50", "1 to 7.94 µM"),
    ("O=C(NCCN1CCOCC1)c1cccc(C(=O)Nc2ccc(N3CCCCC3)cc2-c2cc(C(=O)NCc3cccc(C(F)(F)F)c3)ccn2)c1", "rat NaP2b (SLC34A2) (Rattus norvegicus)", "IC50", "10 to 31.6 µM"),
    ("O=C(O)CCSCc1cccc(C(=O)Nc2ccc(N3CCCCC3)cc2-c2cc(OCc3cccc(C(F)(F)F)c3)ncn2)c1", "rat NaP2b (SLC34A2) (Rattus norvegicus)", "IC50", "10 to 31.6 µM"),
]

Give IC50 only, for `CCN(CC)c1ccc(NC(=O)c2cccc(CCCOCCOCCOCCOCCC(=O)NC(CO)(CO)CO)c2)c(-c2cc(C(=O)NCc3cccc(C(F)(F)F)c3)ccn2)c1` , using rat NaP2b (SLC34A2) (Rattus norvegicus) data.
< 1 µM

Give IC50; test system rat NaP2b (SLC34A2) (Rattus norvegicus); molecule `COCCNC(=O)[C@@H]1CCCN(C(=O)c2cccc(C(=O)Nc3ccc(N4CCCCC4)cc3-c3cc(C(=O)NCc4cccc(C(F)(F)F)c4)ccn3)c2)C1`
1 to 7.94 µM

Specify IC50 for `O=C(O)CCSCc1cccc(C(=O)Nc2ccc(N3CCCCC3)cc2-c2cc(C(=O)NCc3cccc4ccccc34)ccn2)c1` , system rat NaP2b (SLC34A2) (Rattus norvegicus).
1 to 7.94 µM

Find the measured IC50 of O=C(O)CCSCc1cccc(C(=O)Nc2ccc(N3CCCCC3)cc2-c2cc(C(=O)NC3CCCc4ccccc43)ccn2)c1 (stereo not drawn) with rat NaP2b (SLC34A2) (Rattus norvegicus) as test system.
1 to 7.94 µM

Retrieve IC50 on rat NaP2b (SLC34A2) (Rattus norvegicus); query `O=C(O)CCOCCOCCOCCOCCSCc1cccc(C(=O)Nc2ccc(N3CCCCC3)cc2-c2cc(C(=O)NCc3cccc(C(F)(F)F)c3)ccn2)c1`
1 to 7.94 µM

Output reported IC50 of the molecule `O=C(O)CCOCCOCCOCCNC(=O)c1cccc2c1ccn2Cc1cccc(C(=O)Nc2ccc(N3CCCCC3)cc2-c2cc(C(=O)N[C@H]3CCCc4ccccc43)ccn2)c1` on rat NaP2b (SLC34A2) (Rattus norvegicus).
< 1 µM

From: patent US20140023611A1
